System: L1210 leukemia ip in BDF1 mice, survival T/C
Experiment: NCI In Vivo Anticancer Drug Screen. Data for tumor model L1210 Leukemia (intraperitoneal) in B6D2F1 (BDF1) mice
Conditions: endpoint: mean survival time; dose: 200.0 mg/kg/injection; schedule: Q04DX002 (ip); vehicle: saline; higher = longer survival
Toxic doses and inconclusive results are not listed.
Measured endpoint: T/C

* CC(=O)OCC1CCC1 | 118 % of control
* CC(C)(C)CNC(C)(C)C | 95 % of control
* O=P(O)(O)OCC1OC(n2cnc3c(Cl)ncnc32)C(O)C1O (centres undefined) | 123 % of control
* NC(=O)C1CCC(=O)N1 (centres undefined) | 98 % of control

Name the reported T/C value associated with the compound "O=C(O)CNC(=O)N1CCCC1"
96 % of control

Also Cc1cc(C)c(C2CC3CCC2C3)cc1N (centres undefined) , if possible.
96 % of control

Also "O=S(=O)(Nc1cc(C(F)(F)F)ccc1Cl)c1ccc(Cl)cc1" , if possible.
106 % of control
